target: hGLP-1R (Homo sapiens, UniProt P43220); assay: Functional cAMP activity in the presence of 1% HSA; type: cell-based; settings: read-out: cAMP Rel EC50, hGLP-1R
Sequence (P43220 24-463): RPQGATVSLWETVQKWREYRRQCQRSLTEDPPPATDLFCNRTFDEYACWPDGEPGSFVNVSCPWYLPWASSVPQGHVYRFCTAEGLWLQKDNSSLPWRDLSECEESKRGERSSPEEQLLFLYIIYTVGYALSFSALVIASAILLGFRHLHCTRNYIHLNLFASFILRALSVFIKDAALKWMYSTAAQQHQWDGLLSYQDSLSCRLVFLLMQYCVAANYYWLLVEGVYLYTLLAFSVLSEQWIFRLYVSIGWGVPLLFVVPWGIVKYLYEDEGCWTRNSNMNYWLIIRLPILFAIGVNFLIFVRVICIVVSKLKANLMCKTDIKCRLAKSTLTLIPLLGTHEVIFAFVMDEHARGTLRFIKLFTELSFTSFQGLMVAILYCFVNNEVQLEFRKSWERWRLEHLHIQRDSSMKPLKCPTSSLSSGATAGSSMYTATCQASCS
Starred links: 1 amine or outer side, 2 acyl side, 3 side chain; linkers in the order of their positions; H or OH if unused. Non-standard residues stand in square brackets, D forms with d. Groups on a side chain read outwards from the residue. *: point of attachment. C20 diacid = O=C(O)CCCCCCCCCCCCCCCCCCC(=O)*; C18 diacid = O=C(O)CCCCCCCCCCCCCCCCC(=O)*; αMePhe(2-F) = C[C@](N)(Cc1ccccc1F)C(=O)O; γGlu = O=C(O)[C@H](CCC(=O)[*:2])N[*:1]; αMe4Pal = C[C@](N)(Cc1ccncc1)C(=O)O; αMeY = C[C@](N)(Cc1ccc(O)cc1)C(=O)O; 4Pal = N[C@@H](Cc1ccncc1)C(=O)O; αMeL = CC(C)C[C@](C)(N)C(=O)O; αMeS = C[C@](N)(CO)C(=O)O; Orn = NCCC[C@H](N)C(=O)O; AEEA = NCCOCCOCC(=O)O; Aib = CC(C)(N)C(=O)O
Exercise: for every item that follows, state its recorded EC50.
Your answer should be a plain number; it is taken to be in nM.

Entry H-Y[Aib]QGTFTSDFS[Orn][αMeL]LDKK([AEEA-γGlu-C20 diacid])AQ[Aib]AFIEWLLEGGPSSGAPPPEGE-NH2 [Example 101] ; EC50 = 1090

Record H-Y[Aib]QGT[αMePhe(2-F)]TSD[4Pal][αMeS]I[αMeL]LD[Orn]QAQ[αMe4Pal]EFI[dE][αMeY]LIEGGPSSGAPPPSGSE-NH2 [Example 1233] , field EC50: 1.06

Recorded EC50 (substance H-Y[Aib]QGT[αMePhe(2-F)]TSD[4Pal]SI[αMeL]LD[Orn]K([γGlu-γGlu-C18 diacid])AQ[αMe4Pal][Orn]FI[dE][αMeY]LIEGGPSSGEPPPETE-NH2 [Example 686] ): 19.1

====

Please go through the items and note down their EC50.
target: hGLP-1R (Homo sapiens); assay: Functional cAMP activation in the presence of 0.1% casein (no HSA); type: cell-based; conditions: 0.1% casein, no HSA; geometric mean; read-out: Relative cAMP EC50, hGLP-1R;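 further: intracellular cAMP rise after 30 min at 37 °C read by HTRF, normalized between buffer only (0%) and maximal control ligand (100%), four-parameter variable-slope fit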
Starred links: 1 amine or outer side, 2 acyl side, 3 side chain; linkers in the order of their positions; H or OH if unused. Non-standard residues stand in square brackets, D forms with d. Groups on a side chain read outwards from the residue. No end group written: not given here. *: point of attachment. C18 diacid = O=C(O)CCCCCCCCCCCCCCCCC(=O)*; αMePhe(2-F) = C[C@](N)(Cc1ccccc1F)C(=O)O; γGlu = O=C(O)[C@H](CCC(=O)[*:2])N[*:1]; αMe4Pal = C[C@](N)(Cc1ccncc1)C(=O)O; αMeY = C[C@](N)(Cc1ccc(O)cc1)C(=O)O; 4Pal = N[C@@H](Cc1ccncc1)C(=O)O; αMeL = CC(C)C[C@](C)(N)C(=O)O; αMeS = C[C@](N)(CO)C(=O)O; Orn = NCCC[C@H](N)C(=O)O; AEEA = NCCOCCOCC(=O)O; Aib = CC(C)(N)C(=O)O
Reply numerically in nM, unit not repeated.

Data point: H-Y[Aib]QGT[αMePhe(2-F)]TSD[4Pal][αMeS]I[αMeL]LD[Orn]K([AEEA-γGlu-C18 diacid])AQ[αMe4Pal]EFI[dE][αMeY]LIEGGPPSGEPPPEGE-NH2 [Example 1191] ; EC50 = 0.945

Measured EC50 of Y[Aib]QGT[αMePhe(2-F)]TSD[4Pal]SI[αMeL]LD[Orn]QAQ[αMe4Pal][Orn]FI[dE][αMeY]LIEGGPSSGEPPPETE-NH2 [Example 1230] : 1.19

GET /value?item= H-Y[Aib]QGT[αMePhe(2-F)]TSD[4Pal][αMeS]I[αMeL]LD[Orn][Orn]([AEEA-γGlu-C18 diacid])AQ[αMe4Pal]EFI[dE][αMeY]LIEGGPSSGAPPPSGGGE-NH2 [Example 1213] &field=EC50 returns 0.423

EC50 in this record for H-Y[Aib]QGT[αMePhe(2-F)]TSD[4Pal][αMeS]I[αMeL]LD[Orn]K([γGlu-γGlu-C18 diacid])AQ[αMe4Pal]EFI[dE][αMeY]LIEGGPPS[Aib][Orn]PPP[Orn]GS-NH2 [Example 1226] : 0.264

In plain terms, H-Y[Aib]QGT[αMePhe(2-F)]TSD[4Pal][αMeS]I[αMeL]LD[Orn]QAQ[αMe4Pal]EFI[dE][αMeY]LVEGGPSSGAPPPSGS-NH2 [Example 1231] has a documented EC50 of 1.23
